The measurements presented in this section are drawn from ChEMBL document CHEMBL3227978.

system: Mus musculus; assay: Antidepressant activity in po dosed ICEM:CET (SPF Caw) mouse assessed as antagonism of reserpine-induced hypothermia administered via gavage 30 mins before reserpine challenge measured 4 hrs after reserpine treatment; format: functional; conditions: Mus musculus, ICEM:CET(SPF Caw), po; read-out: ED50
RECORDED METRIC: ED50

Examples from the recorded data:
COMPOUND | TARGET OF ASSAY | REPORTED RESULT
CC(C)NC1CN(C2c3ccccc3CCc3ccccc32)C1 | Mus musculus | 8.5 mg/kg
CNC1CN(C2c3ccccc3CSc3ccccc32)C1 (stereo not given) | Mus musculus | > 25 mg/kg
CNC1CN(C2c3ccccc3COc3ccccc32)C1 (stereo not given) | Mus musculus | 15 mg/kg

Qu. Enter ED50 (test system Mus musculus) for CC(C)NC1CN(C2c3ccccc3COc3ccccc32)C1 (stereo not given)
Ans. 24.5 mg/kg

====

Each entry below lists one item and its recorded ED50 value.
system: Mus musculus; experiment: Antidepressant activity in po dosed ICEM:CET (SPF Caw) mouse assessed as antagonism of reserpine-induced blepharospasm administered via gavage 30 mins before reserpine challenge measured 1 hr after reserpine treatment; assay type: functional; conditions: Mus musculus, ICEM:CET(SPF Caw), po; read-out: ED50

Answered cases to consult:
MOLECULE | ED50
c1ccc2c(c1)CCc1ccccc1C2N1CC(n2ccnc2)C1 | > 25 mg/kg
CNC1CN(C2c3ccccc3C=Cc3ccccc32)C1 | > 25 mg/kg
CC(=O)N(C)C1CN(C2c3ccccc3CCc3ccccc32)C1 | > 25 mg/kg

Qu. Give ED50 for the following molecule: `OCCN1CCN(C2CN(C3c4ccccc4CCc4ccccc43)C2)CC1`
Ans. > 25 mg/kg

Qu. Answer with the recorded ED50 of CNC1CN(C2c3ccccc3CSc3ccc(Cl)cc32)C1 (stereo not given) only.
Ans. > 25 mg/kg

Qu. Return value of ED50 for input CN(C)C1CN(C2c3ccccc3CSc3ccc(Cl)cc32)C1 (stereo not given) , no commentary.
Ans. > 25 mg/kg

Qu. Quick one: give measured ED50 for CNC1CN(C2c3ccccc3COc3ccccc32)C1 (stereo not given)
Ans. 2.6 mg/kg

Qu. Return the recorded ED50 value; entry: `CN(C(N)=O)C1CN(C2c3ccccc3CCc3ccccc32)C1`
Ans. > 12.5 mg/kg

====

ED50 overview
tested on: Mus musculus; experiment: Antidepressant activity in po dosed ICEM:CET (SPF Caw) mouse assessed as antagonism of reserpine-induced hypothermia administered via gavage 30 mins before reserpine challenge measured 4 hrs after reserpine treatment; format: functional; conditions: Mus musculus, ICEM:CET(SPF Caw), po; read-out: ED50

Below, 3 compounds whose answers are already recorded.
COMPOUND | ED50
CN(CC(=O)c1ccccc1)C1CN(C2c3ccccc3CCc3ccccc32)C1 | > 25 mg/kg
CNC1CN(C2c3ccccc3COc3ccc(Cl)cc32)C1 (stereo unspecified) | > 25 mg/kg
c1ccc2c(c1)CCc1ccccc1C2N1CCNCC1 | > 25 mg/kg

Qu. Could you please provide reported ED50 for `NCC1CN(C2c3ccccc3CCc3ccccc32)C1` ? Thanks!
Ans. > 25 mg/kg

Qu. Give reported ED50 value for `CC(C)(C)NC1CN(C2c3ccccc3CCc3ccccc32)C1`
Ans. > 25 mg/kg

Qu. Indicate its recorded ED50; the compound in question is CNC1CN(C2c3ccccc3CCc3ccccc32)C1C (stereo unspecified)
Ans. 10.5 mg/kg

Qu. Please list ED50 recorded for the compound `OCCN1CCN(C2CN(C3c4ccccc4CCc4ccccc43)C2)CC1`
Ans. > 25 mg/kg

Qu. Supply measured ED50 of `CNC1CN(C2c3ccccc3C=Cc3ccccc32)C1` in your reply.
Ans. > 25 mg/kg

Qu. Provide measured ED50 value, entry: CNC1CN(C2c3ccccc3CCc3ccc(Cl)cc32)C1 (stereo unspecified)
Ans. > 25 mg/kg

====

test system: Mus musculus; test: Antidepressant activity in po dosed ICEM:CET (SPF Caw) mouse assessed as antagonism of reserpine-induced blepharospasm administered via gavage 30 mins before reserpine challenge measured 1 hr after reserpine treatment; format: functional; conditions: Mus musculus, ICEM:CET(SPF Caw), po; read-out: ED50
RECORDED METRIC: ED50

COMPOUND | TARGET OF ASSAY | ED50
CN(C)C1CN(C2c3ccccc3C3(CC3)c3ccccc32)C1 | Mus musculus | 7.2 mg/kg
C#CCN(CC#C)C1CN(C2c3ccccc3CCc3ccccc32)C1 | Mus musculus | > 25 mg/kg
CNC1CCN(C2c3ccccc3CCc3ccccc32)C1 (configuration not stated) | Mus musculus | > 25 mg/kg
CNC1CN(C2c3ccccc3CCc3ccc(Cl)cc32)C1 (configuration not stated) | Mus musculus | > 25 mg/kg
CNC1(c2ccccc2)CN(C2c3ccccc3CCc3ccccc32)C1 | Mus musculus | > 25 mg/kg
NCC1CN(C2c3ccccc3CCc3ccccc32)C1 | Mus musculus | > 25 mg/kg

// next item, ED50 requested
Qu. Recall and state the measured ED50 for `c1ccc2c(c1)CCc1ccccc1C2N1CC(N2CCOCC2)C1` .
Ans. 17 mg/kg

====

tested on: Mus musculus; experiment: Antidepressant activity in po dosed ICEM:CET (SPF Caw) mouse assessed as antagonism of reserpine-induced hypothermia administered via gavage 30 mins before reserpine challenge measured 4 hrs after reserpine treatment; assay type: functional; conditions: Mus musculus, ICEM:CET(SPF Caw), po; read-out: ED50
# Lookup of reported ED50 keyed by entry
Numeric answer only, unit mg/kg assumed.

COMPOUND | ED50 [mg/kg]
CN(C)C1CN(C2c3ccccc3C3(CC3)c3ccccc32)C1 | 16.5
CN(C)C1CN(C2c3ccccc3COc3ccccc32)C1 (configuration not stated) | 23

Turning now to a further record.
Qu. Fill in: ED50 on Mus musculus, entry CN(C)C1CN(C2c3ccccc3CCc3ccc(Cl)cc32)C1 (configuration not stated)
Ans. 8.6
